- Test system: HEL cells
- experimental.context: read-out: CC50 (HEL); HEL cells; anti-VZV table
Kindly supply the reported CC50 values for the records listed here.

Look over these answered cases.
compound	CC50
CCCCCCCCCCNCc1c(O)cc2c(c1O)-c1cc(ccc1O)C1NC(=O)C3NC(=O)C4NC(=O)C(Cc5ccc(c(Cl)c5)Oc5cc3cc(c5O)Oc3ccc(cc3Cl)C(O)C(NC1=O)C(=O)NC2C(=O)NC)NC(=O)C(NC(=O)C(N)CCCCN)c1ccc(O)c(c1)Oc1cc(O)cc4c1 (centres unmarked)	87 µM
CCCCCCCCCCNC1(C)CC(OC2C(Oc3c4cc5cc3Oc3ccc(cc3Cl)C(O)C(NC(=O)C(CC(C)C)NC)C(=O)NC(CC(N)=O)C(=O)NC5C(=O)NC3C(=O)NC(C(=O)NC(C(=O)O)c5cc(O)cc(O)c5-c5cc3ccc5O)C(OC3CC(C)(N)C(O)C(C)O3)c3ccc(cc3)O4)OC(CO)C(O)C2O)OC(C)C1O (centres unmarked)	> 200 µM
NC1C(=O)NC2Cc3ccc(c(Cl)c3)Oc3cc4cc(c3O)Oc3ccc(cc3Cl)C(O)C3NC(=O)C(NC(=O)C4NC(=O)C(NC2=O)c2cc(O)cc(c2)Oc2cc1ccc2O)c1ccc(O)c(c1)-c1c(cc(O)c(CN2CCN(Cc4ccc(Cl)cc4)CC2)c1O)C(C(=O)O)NC3=O (centres unmarked)	> 50 µM
CCCCOc1ccc(CNCCOc2c3cc4cc2Oc2ccc(cc2Cl)C(O)C2NC(=O)C(NC(=O)C4NC(=O)C4NC(=O)C(Cc5ccc(c(Cl)c5)O3)NC(=O)C(NCc3ccc(OCCCC)cc3)c3ccc(O)c(c3)Oc3cc(O)cc4c3)c3ccc(O)c(c3)-c3c(O)cc(O)cc3C(C(=O)O)NC2=O)cc1 (centres unmarked)	40 µM
CCCCCCCCCC(=O)N1CCN(Cc2c(O)cc3c(c2O)-c2cc(ccc2O)C2NC(=O)C4NC(=O)C5NC(=O)C(Cc6ccc(c(Cl)c6)Oc6cc4cc(c6O)Oc4ccc(cc4Cl)C(O)C(NC2=O)C(=O)NC3C(=O)O)NC(=O)C(N)c2ccc(O)c(c2)Oc2cc(O)cc5c2)CC1 (centres unmarked)	> 50 µM

Dear reader, for each entry below, please note its CC50.
1. CCCCCCCCCC[N+](C)(C)CCCNC(=O)C1NC(=O)C2NC(=O)C(NC(=O)C3NC(=O)C4NC(=O)C(Cc5ccc(c(Cl)c5)Oc5cc3cc(c5O)Oc3ccc(cc3Cl)C2O)NC(=O)C(N)c2ccc(O)c(c2)Oc2cc(O)cc4c2)c2ccc(O)c(c2)-c2c(O)cc(O)cc21 (centres unmarked)
2. O=C1NC2C(=O)NC3C(=O)NC4C(=O)NC(C(=O)NC(C(=O)O)c5cc(O)cc(O)c5-c5cc4ccc5O)C(O)c4ccc(c(Cl)c4)Oc4cc3cc(c4O)Oc3ccc(cc3Cl)CC1NC(=O)C(NCc1ccc(-c3ccccc3)cc1)c1ccc(O)c(c1)Oc1cc(O)cc2c1 (centres unmarked)

1. > 200 µM
2. > 50 µM

Dear reader, for each entry below, please note its CC50.
1. CNC(=O)C1NC(=O)C2NC(=O)C(NC(=O)C3NC(=O)C(CC(N)=O)NC(=O)C(NC(=O)C(CC(C)C)N(C)C(=O)OC(C)(C)C)C(O)c4ccc(c(Cl)c4)Oc4cc3cc(c4O)Oc3ccc(cc3)C2O)c2ccc(O)c(c2)-c2c1cc(O)c(CN1CCN(Cc3ccc(-c4ccccc4)cc3)CC1)c2O (centres unmarked)
2. CN(Cc1ccc(Cl)cc1)Cc1c(O)cc2c(c1O)-c1cc(ccc1O)C1NC(=O)C3NC(=O)C4NC(=O)C(Cc5ccc(c(Cl)c5)Oc5cc3cc(c5O)Oc3ccc(cc3Cl)C(O)C(NC1=O)C(=O)NC2C(=O)O)NC(=O)C(N)c1ccc(O)c(c1)Oc1cc(O)cc4c1 (centres unmarked)

["> 50 µM", "50 µM"]

Dear reader, for each entry below, please note its CC50.
1. CCCCCCCCCC[N+](C)(C)CCCNC(=O)C1NC(=O)C2NC(=O)C(NC(=O)C3NC(=O)C4NC(=O)C(Cc5ccc(c(Cl)c5)Oc5cc3cc(c5O)Oc3ccc(cc3Cl)C2O)NC(=O)C(N)c2ccc(O)c(c2)Oc2cc(O)cc4c2)c2ccc(O)c(c2)-c2c1cc(O)c(CN1CC[N+](C)(CCCCCCCCCC)CC1)c2O (centres unmarked)
2. CCCCc1ccc(CN2CCN(Cc3c(O)cc4c(c3O)-c3cc(ccc3O)C3NC(=O)C5NC(=O)C6NC(=O)C(Cc7ccc(c(Cl)c7)Oc7cc5cc(c7O)Oc5ccc(cc5Cl)C(O)C(NC3=O)C(=O)NC4C(=O)NC)NC(=O)C(N)c3ccc(O)c(c3)Oc3cc(O)cc6c3)CC2)cc1 (centres unmarked)
3. CCCCCCCCCCCNC1C(=O)NC2Cc3ccc(c(Cl)c3)Oc3cc4cc(c3O)Oc3ccc(cc3Cl)C(O)C3NC(=O)C(NC(=O)C4NC(=O)C(NC2=O)c2cc(O)cc(c2)Oc2cc1ccc2O)c1ccc(O)c(c1)-c1c(O)cc(O)cc1C(C(=O)NCCCN(C)C)NC3=O (centres unmarked)
4. CCCCc1ccc(CNCC(=O)N2CCN(C(=O)C3NC(=O)C4NC(=O)C(NC(=O)C5NC(=O)C6NC(=O)C(Cc7ccc(c(Cl)c7)Oc7cc5cc(c7O)Oc5ccc(cc5Cl)C4O)NC(=O)C(N)c4ccc(O)c(c4)Oc4cc(O)cc6c4)c4ccc(O)c(c4)-c4c(O)cc(O)cc43)CC2)cc1 (centres unmarked)
5. NC1C(=O)NC2Cc3ccc(c(Cl)c3)Oc3cc4cc(c3O)Oc3ccc(cc3Cl)C(O)C3NC(=O)C(NC(=O)C4NC(=O)C(NC2=O)c2cc(O)cc(c2)Oc2cc1ccc2O)c1ccc(O)c(c1)-c1c(cc(O)c(CN2CCN(N=Cc4ccc(Cl)cc4)CC2)c1O)C(C(=O)O)NC3=O (centres unmarked)

170 µM
> 200 µM
30 µM
> 50 µM
> 50 µM

---

- Test system: HEL cells
- experimental.context: read-out: CC50 (HEL); HEL cell proliferation
measurement.name: CC50

Input CC(C)CC(C(=O)NC1C(=O)NC(CC(N)=O)C(=O)NC2C(=O)NC3C(=O)NC(C(=O)NC(C(=O)O)c4cc(O)c(CN5CCN(Cc6ccc(-c7ccccc7)cc6)CC5)c(O)c4-c4cc3ccc4O)C(O)c3ccc(cc3)Oc3cc2cc(c3O)Oc2ccc(cc2Cl)C1O)N(C)C(=O)OC(C)(C)C (stereo not shown) [Compound 98] . Output CC50: > 50 µM

---

- Tested on: FCK cells
- experimental.context: read-out: CC50 FCK; FCK cells
measurement.name: CC50

Dear reader, for each entry below, please note its CC50.
1. O=C(NC1C(=O)NC2Cc3ccc(c(Cl)c3)Oc3cc4cc(c3O)Oc3ccc(cc3Cl)C(O)C3NC(=O)C(NC(=O)C4NC(=O)C(NC2=O)c2cc(O)cc(c2)Oc2cc1ccc2O)c1ccc(O)c(c1)-c1c(O)cc(O)cc1C(C(=O)O)NC3=O)C(=O)c1c[nH]c2ccccc12 (centres unmarked)
2. CNC(=O)C1NC(=O)C2NC(=O)C(NC(=O)C3NC(=O)C(CC(N)=O)NC(=O)C(NC(=O)C(CC(C)C)N(C)C(=O)OC(C)(C)C)C(O)c4ccc(c(Cl)c4)Oc4cc3cc(c4O)Oc3ccc(cc3)C2O)c2ccc(O)c(c2)-c2c1cc(O)c(CN1CCN(Cc3ccc(-c4ccccc4)cc3)CC1)c2O (centres unmarked)

["63 µM", "> 50 µM"]

---

- measurement.description: in vitro
- experimental.context: monkey (simian)
Kindly supply the reported CC50 values for the records listed here.

Look over these answered cases.
compound	value.reported
NC1Cc2ccc(c(Cl)c2)Oc2cc3cc(c2O)Oc2ccc(cc2Cl)C(O)C2NC(=O)C(NC(=O)C3NC(=O)C(c3cc(O)cc(Oc4cc(C5NC(=S)N(c6ccccc6)C5=O)ccc4O)c3)NC1=O)c1ccc(O)c(c1)-c1c(O)cc(O)cc1C(C(=O)O)NC2=O (stereo not drawn) [Compound 171]	> 100 µM
NC1C(=O)NC2Cc3ccc(c(Cl)c3)Oc3cc4cc(c3O)Oc3ccc(cc3Cl)C(O)C(C(=O)O)NC(=O)C(c3ccc(O)c(-c5c(O)cc(O)cc5C(N)C(=O)O)c3)NC(=O)C4NC(=O)C(NC2=O)c2cc(O)cc(c2)Oc2cc1ccc2O (stereo not drawn) [Compound 172]	> 100 µM

Now for another entry.
Input COC(=O)C1NC(=O)C2NC(=O)C(NC(=O)C(NC(=O)OC(C)(C)C)c3cc(Oc4ccc(CC(NC(=O)OCc5ccccc5)C(=O)O)cc4Cl)c(O)c(c3)Oc3ccc(cc3Cl)C2O)c2ccc(O)c(c2)-c2c(O)cc(O)cc21 (stereo not drawn) [Compound 170] . Output CC50: > 100 µM

---

- Test system: HEL cells
- experimental.context: read-out: CC50 (HEL); HEL cells; anti-CMV table
measurement.name: CC50 (µM)
Give bare numbers, in µM.

Entry CCCCc1ccc(CN2CCN(C(=O)C3NC(=O)C4NC(=O)C(NC(=O)C5NC(=O)C6NC(=O)C(Cc7ccc(c(Cl)c7)Oc7cc5cc(c7O)Oc5ccc(cc5Cl)C4O)NC(=O)C(N)c4ccc(O)c(c4)Oc4cc(O)cc6c4)c4ccc(O)c(c4)-c4c(O)cc(O)cc43)CC2)cc1 (centres unmarked) [Compound 124] , HEL cells data, CC50 value: 71
